test: Selectivity index, ratio of CC50 for human Jurkat cells to EC50 for HIV1; format: toxicity, cell-based; settings: read-out: Ratio CC50/EC50
measurementName: selectivity ratio
Would you mind answering with just the numeric figure?

Prompt: So what does the record say about selectivity ratio for Cn1cc(C(=O)O)c(=O)c2ccc(N3CCN(c4nc5ccccc5s4)CC3)nc21 ?
Completion: 44

Data origin: ChEMBL document CHEMBL1156788
